B1: CCDC6 (parent)
chain: FTPPTSLTRAGMSYYNSPGLHVQH

variants of: B1; assay: protein stability index of a GFP-peptide fusion (GPS, HEK-293T) (PSI 1-6); higher = more stable; details: c terminus: a fixed tail appended;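 also: lentivirally expressed fusions sorted by FACS into six bins by GFP to DsRed ratio, PSI derived from sequencing read proportions per bin multiplied by bin number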
measurement-kind: protein stability index
Numbers only.

Reference set, count: 10
{"changes": "Y15I", "protein stability index": 2.18}
{"changes": "S17H", "protein stability index": 1.83}
{"changes": "F1Y", "protein stability index": 1.91}
{"changes": "A10V", "protein stability index": 1.98}
{"changes": "H21C", "protein stability index": 1.81}
{"changes": "Y14T", "protein stability index": 2.33}
{"changes": "Y14V", "protein stability index": 1.32}
{"changes": "P18H", "protein stability index": 1.38}
{"changes": "F1Q", "protein stability index": 2.64}
{"changes": "R9L", "protein stability index": 2.82}

For each entry beneath this line, provide reported protein stability index.
1. A10R
2. P3F
3. H21N
4. L20G
5. H21I
6. P18K
7. S17T

1: 2.22; 2: 1.95; 3: 1.97; 4: 2.93; 5: 1.61; 6: 2.43; 7: 1.64
